Target: HIV-1 integrase (Human immunodeficiency virus 1)
Experiment: In vitro inhibitory concentration against HIV-1 recombinant integrase activity in standard 3'-processing assay
pIC50: −log10 of the molar value.
readout-kind: pIC50

Please look up its pIC50: O=C(c1ccc(O)cc1)c1ccc2ccc(/C=C/c3ccc(O)c(O)c3)nc2c1O
< 4.00
